- experimental.target: Orexin/Hypocretin receptor type 1 (Homo sapiens)
- measurement.notes: Antagonist activity at human recombinant OX1 receptor expressed in CHO cells assessed as OXA-stimulated intracellular calcium mobilization by FLIPR assay
- Type: functional, cell-based
So basically: pKb at 8 or higher? That is MET. Lower than 8? That is NOT MET.

pKb >= 8 for `Cc1ccc(-n2nccn2)c(C(=O)N2CC3(CC3)C[C@H]2CNc2cccc(C)n2)c1` ?
NOT MET

pKb >= 8 for `Cc1ccc(-c2nccs2)c(C(=O)N2CC3(CC3)C[C@H]2CNc2ccc(C(F)(F)F)cn2)n1` ?
MET

pKb >= 8 for `O=C(c1nc(C(F)(F)F)ccc1-c1ncccn1)N1CC2(CC2)C[C@H]1CNc1ccc(C(F)(F)F)cn1` ?
NOT MET

pKb >= 8 for `Cc1ccc(-n2nccn2)c(C(=O)N2CCC3(CC3)C[C@H]2CNc2ccc(Cl)cn2)c1` ?
NOT MET

* * *

- experimental.target: CYP1A2 (Homo sapiens, UniProt P05177)
- Sequence (P05177 whole entry): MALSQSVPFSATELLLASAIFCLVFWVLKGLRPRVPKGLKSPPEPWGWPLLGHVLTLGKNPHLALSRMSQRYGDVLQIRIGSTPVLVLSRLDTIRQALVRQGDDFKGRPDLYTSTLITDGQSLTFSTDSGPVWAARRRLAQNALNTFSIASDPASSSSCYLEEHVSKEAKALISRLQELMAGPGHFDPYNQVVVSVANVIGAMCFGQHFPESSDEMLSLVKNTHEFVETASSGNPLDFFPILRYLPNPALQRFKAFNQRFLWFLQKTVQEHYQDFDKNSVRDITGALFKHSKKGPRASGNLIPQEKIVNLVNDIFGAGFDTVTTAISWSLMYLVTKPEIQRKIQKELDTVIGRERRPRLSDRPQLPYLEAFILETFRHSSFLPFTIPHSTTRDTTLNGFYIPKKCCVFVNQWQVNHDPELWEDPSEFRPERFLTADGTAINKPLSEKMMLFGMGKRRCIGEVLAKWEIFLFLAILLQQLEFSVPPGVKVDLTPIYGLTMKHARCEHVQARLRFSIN
- measurement.notes: Inhibition of human recombinant CYP1A2 at 3 uM by fluorimetric assay
- Assay type: ADME
quantity: inhibition at 3 µM

Note to self: inhibition at 3 µM recorded for `Cc1nc(C(=O)N2CC3(CC3)C[C@H]2CNc2ccc(C(F)(F)F)cn2)c(-c2ccccc2)s1` was < 20%

Note to self: inhibition at 3 µM recorded for `CS(=O)(=O)c1ccc(-c2ccccc2)c(C(=O)N2CC3(CC3)C[C@H]2CNc2ccc(C(F)(F)F)cn2)c1` was < 41%

Note to self: inhibition at 3 µM recorded for `O=C(c1cc(Cl)ccc1-c1ncccn1)N1CC2(CC2)C[C@H]1CNc1ccc(C(F)(F)F)cn1` was < 22%

Note to self: inhibition at 3 µM recorded for `O=C(c1nc(OC(F)(F)F)ccc1-c1ncccn1)N1CC2(CC2)C[C@H]1CNc1ccc(C(F)(F)F)cn1` was < 58%

Note to self: inhibition at 3 µM recorded for `Cc1ccc(-c2ncccn2)c(C(=O)N2CC3(CC3)C[C@H]2CNc2ccc(C(F)(F)F)cn2)n1` was < 28%

Note to self: inhibition at 3 µM recorded for `O=C(c1nc(C(F)(F)F)ccc1-c1ncccn1)N1CC2(CC2)C[C@H]1CNc1ccc(C(F)(F)F)cn1` was < 39%

Note to self: inhibition at 3 µM recorded for `Cc1ccc(-c2nccs2)c(C(=O)N2CC3(CC3)C[C@H]2CNc2ccc(C(F)(F)F)cn2)n1` was < 89%

Note to self: inhibition at 3 µM recorded for `Cc1cnn(-c2ccc(C)nc2C(=O)N2CC3(CC3)C[C@H]2CNc2ccc(C(F)(F)F)cn2)c1` was < 85%

* * *

Record form. Attribute: pKb. Fill in for each entry.
- experimental.target: Orexin/Hypocretin receptor type 1 (Homo sapiens)
- Sequence (whole entry): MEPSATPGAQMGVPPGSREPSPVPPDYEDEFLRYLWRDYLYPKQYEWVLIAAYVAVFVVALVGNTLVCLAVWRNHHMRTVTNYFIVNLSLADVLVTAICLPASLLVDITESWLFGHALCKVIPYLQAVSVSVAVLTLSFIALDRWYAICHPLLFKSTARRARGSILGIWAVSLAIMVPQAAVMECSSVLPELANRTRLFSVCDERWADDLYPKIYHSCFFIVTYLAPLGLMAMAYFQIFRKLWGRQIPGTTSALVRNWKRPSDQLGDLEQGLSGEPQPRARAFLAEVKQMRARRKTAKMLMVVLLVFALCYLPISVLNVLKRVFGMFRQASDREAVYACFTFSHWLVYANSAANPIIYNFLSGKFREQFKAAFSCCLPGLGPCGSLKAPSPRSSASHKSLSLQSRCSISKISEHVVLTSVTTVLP
- measurement.notes: Antagonist activity at human recombinant OX1 receptor expressed in CHO cells assessed as OXA-stimulated intracellular calcium mobilization by FLIPR assay
- Format: functional, cell-based
// keep it numeric: no unit symbol after the value

Note to self: pKb recorded for `Cc1ccc(-c2ncccn2)c(C(=O)N2CCC3(CC3)C[C@H]2CNc2ccc(Cl)cn2)c1` was 7.6

Note to self: pKb recorded for `Cc1ccc(-c2ccccc2)c(C(=O)N2CC3(CC3)C[C@H]2CNc2ccc(C(F)(F)F)cn2)n1` was 8.6

Note to self: pKb recorded for `Cc1cccc(NC[C@@H]2CC3(CC3)CN2C(=O)c2nc(C)sc2-c2ccccc2)n1` was 7.3

Note to self: pKb recorded for `Cc1ccc(OCc2ccccc2)c(C(=O)N2CC3(CC3)C[C@H]2CNc2ccc(C(F)(F)F)cn2)n1` was 8.6

Note to self: pKb recorded for `N#Cc1ccc(-c2ncccn2)c(C(=O)N2CC3(CC3)C[C@H]2CNc2ccc(C(F)(F)F)cn2)c1` was 8

Note to self: pKb recorded for `CS(=O)(=O)c1ccc(-c2ccccc2)c(C(=O)N2CC3(CC3)C[C@H]2CNc2ccc(C(F)(F)F)cn2)c1` was 6.7

Note to self: pKb recorded for `O=C(c1ncccc1-c1ncccn1)N1CC2(CC2)C[C@H]1CNc1ccc(C(F)(F)F)cn1` was 7.7

Note to self: pKb recorded for `Cc1cc(C(F)(F)F)cc(NC[C@@H]2CC3(CC3)CN2C(=O)c2nc(C)sc2-c2ccccc2)n1` was 7.8

* * *

- experimental.target: CYP3A4 (Homo sapiens)
- Sequence (P08684 whole entry): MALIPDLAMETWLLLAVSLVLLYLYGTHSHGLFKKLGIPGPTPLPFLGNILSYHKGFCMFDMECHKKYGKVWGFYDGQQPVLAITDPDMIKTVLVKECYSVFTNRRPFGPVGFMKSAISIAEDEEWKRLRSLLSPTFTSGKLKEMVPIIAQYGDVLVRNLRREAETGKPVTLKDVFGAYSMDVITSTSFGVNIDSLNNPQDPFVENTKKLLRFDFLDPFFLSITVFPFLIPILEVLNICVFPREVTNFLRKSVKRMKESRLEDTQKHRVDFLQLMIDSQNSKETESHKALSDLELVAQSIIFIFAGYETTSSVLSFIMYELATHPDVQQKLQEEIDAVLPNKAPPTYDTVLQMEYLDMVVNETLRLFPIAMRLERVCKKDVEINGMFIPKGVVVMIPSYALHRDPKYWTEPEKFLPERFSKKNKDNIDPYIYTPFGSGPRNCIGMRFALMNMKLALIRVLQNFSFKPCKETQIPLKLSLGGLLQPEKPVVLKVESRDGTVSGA
- measurement.notes: Inhibition of human recombinant CYP3A4 using DBF as substrate at 1 uM by fluorimetric assay
- Type: ADME
- experimental.setup: recombinant CYP3A4, probe DBF
Record form. Attribute: inhibition at 1 µM. Fill in for each entry.

Note to self: inhibition at 1 µM recorded for `Cc1ccc(-c2ncccn2)c(C(=O)N2CC3(CC3)C[C@H]2CNc2cc(C(F)(F)F)ccn2)c1` was < 72%

Note to self: inhibition at 1 µM recorded for `Cc1cc(C)nc(NC[C@@H]2CC3(CC3)CN2C(=O)c2nc(C)sc2-c2ccccc2)n1` was < 16%

Note to self: inhibition at 1 µM recorded for `Cc1ccc(-n2nccn2)c(C(=O)N2CC3(CC3)C[C@H]2CNc2cccc(C)n2)c1` was < 34%

Note to self: inhibition at 1 µM recorded for `Cc1ccc(-c2ncccn2)c(C(=O)N2CC3(CC3)C[C@H]2CNc2ccc(Cl)cn2)c1` was < 53%

Note to self: inhibition at 1 µM recorded for `Cc1nc(C(=O)N2CC3(CC3)C[C@H]2CNc2cc(C(F)(F)F)ccn2)c(-c2ccccc2)s1` was < 55%

* * *

- measurement.notes: Oral bioavailability in rat at 1 mg/kg
- Assay type: ADME, organism-based
- experimental.setup: in vivo
quantity: bioavailability (%)
Numeric only. Scale: %

Note to self: bioavailability recorded for `Cc1ccc(-c2ccccc2)c(C(=O)N2CC3(CC3)C[C@H]2CNc2ccc(C(F)(F)F)cn2)n1` was 11

Note to self: bioavailability recorded for `Cc1ccc(-c2ncccn2)c(C(=O)N2CC3(CC3)C[C@H]2CNc2ccc(Cl)cn2)c1` was 40

Note to self: bioavailability recorded for `Cc1ccc(-c2ncccn2)c(C(=O)N2CC3(CC3)C[C@H]2CNc2ccc(C(F)(F)F)cn2)n1` was 33

Note to self: bioavailability recorded for `Cc1nc(C(=O)N2CC3(CC3)C[C@H]2CNc2ccc(C(F)(F)F)cn2)c(-c2ccccc2)s1` was 20

* * *

- experimental.target: UniProt O43614
- Sequence (whole entry): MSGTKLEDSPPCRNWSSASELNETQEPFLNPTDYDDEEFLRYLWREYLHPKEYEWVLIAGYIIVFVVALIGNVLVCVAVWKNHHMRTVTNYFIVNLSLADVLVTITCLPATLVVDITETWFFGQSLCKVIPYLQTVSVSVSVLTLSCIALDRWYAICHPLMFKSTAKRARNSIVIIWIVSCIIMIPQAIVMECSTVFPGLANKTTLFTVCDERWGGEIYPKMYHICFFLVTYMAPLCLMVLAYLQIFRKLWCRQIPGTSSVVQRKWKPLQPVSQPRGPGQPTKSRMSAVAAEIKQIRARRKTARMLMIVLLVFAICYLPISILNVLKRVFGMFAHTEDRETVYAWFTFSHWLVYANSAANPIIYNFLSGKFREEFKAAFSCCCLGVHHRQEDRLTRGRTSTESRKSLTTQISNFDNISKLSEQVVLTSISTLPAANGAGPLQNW
- measurement.notes: Antagonist activity at human recombinant OX2 receptor expressed in HEK293 cells assessed as OXB-stimulated intracellular calcium mobilization by FLIPR assay
- Format: functional, cell-based
Record form. Attribute: pKb. Fill in for each entry.

The compound `Cc1cnn(-c2ccc(C)nc2C(=O)N2CC3(CC3)C[C@H]2CNc2ccc(C(F)(F)F)cn2)c1` , tested on UniProt O43614, showed pKb of 8.3

The compound `Cc1nc(C(=O)N2CCC3(CC3)C[C@H]2CNc2ccc(C(F)(F)F)cn2)c(-c2ccccc2)s1` , tested on UniProt O43614, showed pKb of < 5

The compound `Cc1ccc(-c2ncccn2)c(C(=O)N2CC3(CC3)C[C@H]2CNc2cc(C(F)(F)F)ccn2)n1` , tested on UniProt O43614, showed pKb of 8.1

The compound `CS(=O)(=O)c1ccc(-c2ccccc2)c(C(=O)N2CC3(CC3)C[C@H]2CNc2ccc(C(F)(F)F)cn2)c1` , tested on UniProt O43614, showed pKb of 7.1

The compound `Cc1ccnc(NC[C@@H]2CC3(CC3)CN2C(=O)c2nc(C)sc2-c2ccccc2)n1` , tested on UniProt O43614, showed pKb of 7

The compound `O=C(c1ncccc1-c1ncccn1)N1CC2(CC2)C[C@H]1CNc1ccc(C(F)(F)F)cn1` , tested on UniProt O43614, showed pKb of 5

The compound `Cc1nc(C(=O)N2CC3(CC3)C[C@H]2CNc2ccc(Cl)cn2)c(-c2ccccc2)s1` , tested on UniProt O43614, showed pKb of 7.1

The compound `Cc1nc(C(=O)N2CC3(CC3)C[C@H]2CNc2ncc(Cl)cn2)c(-c2ccccc2)s1` , tested on UniProt O43614, showed pKb of 6.8

The compound `Cc1ccc(-c2ccccc2)c(C(=O)N2CC3(CC3)C[C@H]2CNc2ccc(C(F)(F)F)cn2)n1` , tested on UniProt O43614, showed pKb of 8
